Assay: Study 424: tear fluid pharmacokinetics after single topical ocular instillation in healthy volunteers
Format: in vivo, human
Conditions: both sexes, human, tear fluid, topical, 37 μL of 0.6% suspension per eye, 0.6% suspension, human tears; read-out: mean concentration in tears at 24 hours (C24h)
attributeMeasured: concentration at 24 h (ng/g)
Enter your answer as a number in ng/g; do not include the unit.

Please supply the value of reported concentration at 24 h for the item N[C@@H]1CCCCN(c2c(F)cc3c(=O)c(C(=O)O)cn(C4CC4)c3c2Cl)C1
1600

====

Test system: Streptococcus mitis
Experiment: MIC of clinical trial isolates, Studies 373, 433, 434
Assay type: cell-based
Details: Streptococcus mitis (listed separately from S. mitis group), N 20
attributeMeasured: MIC90 (µg/mL)
Quick note: give the figure in µg/mL, leave out the unit.

Some solved cases for reference:
INSERT INTO assay_data (compound, targetortestsystem, attributemeasured, resultunits, quantitativereadout) VALUES
  ('CC[C@H]1OC(=O)[C@H](C)[C@@H](O[C@H]2C[C@@](C)(OC)[C@@H](O)[C@H](C)O2)[C@H](C)[C@@H](O[C@@H]2O[C@H](C)C[C@H](N(C)C)[C@H]2O)[C@](C)(O)C[C@@H](C)CN(C)[C@H](C)[C@@H](O)[C@]1(C)O', 'Streptococcus mitis', 'MIC90', 'µg/mL', 4),
  ('C[C@H]1COc2c(N3CCN(C)CC3)c(F)cc3c(=O)c(C(=O)O)cn1c23', 'Streptococcus mitis', 'MIC90', 'µg/mL', 1),
  ('CC1COc2c(N3CCN(C)CC3)c(F)cc3c(=O)c(C(=O)O)cn1c23 (centres unmarked)', 'Streptococcus mitis', 'MIC90', 'µg/mL', 2),
  ('N[C@@H]1CCCCN(c2c(F)cc3c(=O)c(C(=O)O)cn(C4CC4)c3c2Cl)C1', 'Streptococcus mitis', 'MIC90', 'µg/mL', 0.125);

Let's switch to this compound now.
Assign MIC90 to the following record: COc1c(N2CCNC(C)C2)c(F)cc2c(=O)c(C(=O)O)cn(C3CC3)c12 (centres unmarked)
1
